# system-name: ΔF508-CFTR (Homo sapiens, UniProt P13569, DEL508-508)
# Construct: host or cells: CFBE41o-, doxycycline-inducible
# Sequence (P13569 with tags, fused parts or gaps DEL508-508): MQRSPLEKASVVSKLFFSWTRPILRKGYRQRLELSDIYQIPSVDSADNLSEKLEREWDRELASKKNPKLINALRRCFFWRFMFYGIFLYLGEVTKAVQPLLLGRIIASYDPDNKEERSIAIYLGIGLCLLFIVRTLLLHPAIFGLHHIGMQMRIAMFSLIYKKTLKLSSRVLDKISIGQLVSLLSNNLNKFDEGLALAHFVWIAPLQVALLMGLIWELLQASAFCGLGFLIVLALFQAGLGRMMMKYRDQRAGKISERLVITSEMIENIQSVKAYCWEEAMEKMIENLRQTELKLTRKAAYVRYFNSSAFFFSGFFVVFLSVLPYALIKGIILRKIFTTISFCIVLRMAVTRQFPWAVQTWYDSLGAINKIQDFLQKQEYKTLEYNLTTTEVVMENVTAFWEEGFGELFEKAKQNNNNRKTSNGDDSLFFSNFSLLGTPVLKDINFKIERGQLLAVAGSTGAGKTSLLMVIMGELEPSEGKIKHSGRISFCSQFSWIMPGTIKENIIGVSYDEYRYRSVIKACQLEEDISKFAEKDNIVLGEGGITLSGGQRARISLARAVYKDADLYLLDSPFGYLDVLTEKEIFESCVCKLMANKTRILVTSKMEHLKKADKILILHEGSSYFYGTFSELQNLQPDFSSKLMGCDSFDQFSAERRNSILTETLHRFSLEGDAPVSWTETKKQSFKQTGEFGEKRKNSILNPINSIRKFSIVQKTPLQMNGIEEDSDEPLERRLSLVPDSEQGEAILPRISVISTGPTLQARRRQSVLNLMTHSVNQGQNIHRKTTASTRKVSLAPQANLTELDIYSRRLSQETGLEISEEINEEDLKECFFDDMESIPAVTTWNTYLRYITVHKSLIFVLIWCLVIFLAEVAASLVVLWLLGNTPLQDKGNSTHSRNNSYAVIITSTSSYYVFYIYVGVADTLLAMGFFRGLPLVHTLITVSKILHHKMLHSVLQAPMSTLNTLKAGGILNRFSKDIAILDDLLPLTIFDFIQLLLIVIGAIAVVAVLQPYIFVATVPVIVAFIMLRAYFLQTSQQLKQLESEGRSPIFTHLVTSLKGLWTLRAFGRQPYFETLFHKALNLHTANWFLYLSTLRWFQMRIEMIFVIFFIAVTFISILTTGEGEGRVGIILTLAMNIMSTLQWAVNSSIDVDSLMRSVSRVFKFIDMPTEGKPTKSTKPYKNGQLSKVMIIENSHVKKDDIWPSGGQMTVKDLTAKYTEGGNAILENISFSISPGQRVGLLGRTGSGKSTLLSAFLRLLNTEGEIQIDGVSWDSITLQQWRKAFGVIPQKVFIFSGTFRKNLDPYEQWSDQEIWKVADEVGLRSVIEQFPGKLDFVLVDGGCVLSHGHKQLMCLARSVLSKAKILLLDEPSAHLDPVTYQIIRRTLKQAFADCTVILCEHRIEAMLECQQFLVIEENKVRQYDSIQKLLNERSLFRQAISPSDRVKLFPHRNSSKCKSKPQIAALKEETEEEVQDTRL
# experiment-description: CFTR cell surface levels using HRP-tagged ΔF508-CFTR expressing CFBE cells, intrinsic corrector capacity
# Assay type: cell-based
# condition-parameters: HRP-tagged ΔF508-CFTR expressing CFBE cells; intrinsic corrector capacity (no co-corrector); 33° C., 20 hours
# Lookup of reported % Activation keyed by entry

compound	% Activation / %
CN1CCC(C2CCN(c3cc(C(=O)O)nc4c3c(C3CCC3)nn4-c3ccccc3)CC2)CC1	253.5
CC(C1CCN(c2cc(C(=O)O)nc3c2c(C2CCC2)nn3-c2ccc(F)cc2)CC1)N1CCOCC1 (stereo not shown)	364
O=C(O)c1cc(N2CCC(N3CCN(C4CC4)CC3)CC2)c2c(C3CCC3)nn(-c3ccccc3)c2n1	267.6
N#CC1CN(C2CCN(c3cc(C(=O)O)nc4c3c(C3CCC3)nn4-c3ccc(F)cc3)CC2)C1	279.1
N#CC1CCN(c2ccc(-c3cc(C(=O)O)nc4c3c(OC3COC3)nn4-c3ccccc3)cn2)CC1	116.6
CC(C)c1nn(-c2ccc(F)cc2)c2nc(C(=O)O)cc(N3CCC(CN4CCCCC4)CC3)c12	193.7
N#CC1CCN(c2cc(C(=O)O)nc3c2c(C2CCC2)nn3-c2ccccc2)CC1	155.63
CCC1(COc2cc(C(=O)O)nc3c2c(C2CCC2)nn3-c2ccccc2)COCOC1	147.4
CN1CCC[C@]12C[C@@H](Oc1cc(C(=O)O)nc3c1c(C1CCC1)nn3-c1ccccc1)C2	111.55
O=C(O)c1cc(N2CCC3C(CCN3C3CCC3)C2)c2c(C3CCC3)nn(-c3ccc(F)cc3)c2n1 (stereo not shown)	199.2
CS(=O)(=O)C1(COc2cc(C(=O)O)nc3c2c(C2CCC2)nn3-c2ccccc2)CCC1	18.94
CC(C)c1nn(-c2cccc(N(C)C)c2)c2nc(C(=O)O)cc(OCC3CCOCC3)c12	159.3
O=C(O)c1cc(OCCC2OCCCO2)c2c(C3CCC3)nn(-c3ccccc3)c2n1	95.49
CCC1(F)CN(c2cc(C(=O)O)nc3c2c(C2CCC2)nn3-c2ccccc2)C1	90.17
O=C(O)c1cc(N2CC3(CCCCC3)C2)c2c(C3CCC3)nn(-c3ccccc3)c2n1	75.39
O=C(O)c1cc(N2CCC3(CC2)CC(O)C3)c2c(C3CCC3)nn(-c3ccccc3)c2n1	129.15

---

# system-name: ΔF508-CFTR (Homo sapiens, UniProt P13569, DEL508-508)
# Construct: host or cells: CFBE41o-, doxycycline-inducible
# experiment-description: CFTR cell surface levels using HRP-tagged ΔF508-CFTR expressing CFBE cells, in the presence of a co-corrector
# Type: cell-based
# condition-parameters: HRP-tagged ΔF508-CFTR expressing CFBE cells, in the presence of 3 μM co-corrector

molecule	% Activation / %
Cc1nn(-c2ccccc2)c2nc(C(=O)O)cc(-c3ccc(N4CCOCC4)cc3)c12	354.48
COCC1CCN(Cc2cc(C(=O)O)nc3c2c(C2CCC2)nn3-c2ccc(F)cc2)CC1	291.4
CN1CCC2(CC1)CCN(c1cc(C(=O)O)nc3c1c(C1CCC1)nn3-c1ccccc1)CC2	432
O=C(O)c1cc(N2CCC(N3CCCC(C(=O)N4CCOCC4)C3)CC2)c2c(C3CCC3)nn(-c3ccccc3)c2n1 (centres unmarked)	248.8
N#CCC1(O)CCN(c2cc(C(=O)O)nc3c2c(C2CCC2)nn3-c2ccccc2)CC1	330.43
O=C(O)c1cc(N2CCN(c3ccncc3)CC2)c2c(C3CCC3)nn(C3CCCCC3)c2n1	452.2
CC(=O)N1CCC(n2nc(C(C)C)c3c(-c4ccc(N5CCOCC5)cc4)cc(C(=O)O)nc32)CC1	126.8
O=C(O)c1cc(N2CC3CC3C2)c2c(C3CCC3)nn(-c3ccccc3)c2n1 (centres unmarked)	359.55

---

# system-name: ΔF508-CFTR (Homo sapiens, UniProt P13569, DEL508-508)
# Construct: host or cells: CFBE41o-, doxycycline-inducible
# experiment-description: CFTR cell surface levels using HRP-tagged ΔF508-CFTR expressing CFBE cells, intrinsic corrector capacity
# Assay type: cell-based
# condition-parameters: HRP-tagged ΔF508-CFTR CFBE41o- cells, compounds alone (intrinsic corrector capacity), 20 hours at 33° C.; read-out: EC50
quantity: EC50 (nM)

compound	quantity	quantitative-readout
CC(C)c1nn(-c2cccc(N(C)C)c2)c2nc(C(=O)O)cc(-c3cnc(N(C)C4CCOCC4)nc3)c12	EC50	438
Cc1cccc(-n2nc(C(C)C)c3c(N4CCC(F)(F)CC4)cc(C(=O)O)nc32)c1	EC50	1180
CC(C)c1nn(-c2cccc(N3CCOCC3)c2)c2nc(C(=O)O)cc(-c3ccc(N(C)C4CCOCC4)cc3)c12	EC50	603
Cc1nn(-c2ccccc2)c2nc(C(=O)O)cc(OCCN3CCCC3)c12	EC50	7500
CC(C)c1nn(C2CCCOC2)c2nc(C(=O)O)cc(-c3ccc(N4CCC(C#N)CC4)nc3)c12 (stereo not shown)	EC50	2550
CC(C)c1nn(C2CCCCC2)c2nc(C(=O)O)cc(N3CCC(CO)CC3)c12	EC50	1250
CC(C)c1nn(-c2cccc(F)c2)c2nc(C(=O)O)cc(-c3ccc(N4CCC(C#N)CC4)cc3)c12	EC50	544

---

# Lookup of reported % Activation keyed by entry
# system-name: ΔF508-CFTR (Homo sapiens, UniProt P13569, DEL508-508)
# Construct: host or cells: CFBE41o-, doxycycline-inducible
# experiment-description: CFTR cell surface levels using HRP-tagged ΔF508-CFTR expressing CFBE cells, in the presence of a co-corrector
# Type: cell-based
# condition-parameters: HRP-tagged ΔF508-CFTR expressing CFBE cells, in the presence of 3 μM co-corrector

compound	% Activation
Cc1nn(-c2ccccc2)c2nc(C(=O)O)cc(-c3ccc(N(C)C4CCOCC4)cc3)c12 [compound 110]	397.65%
O=C(O)c1cc(N2CCC(CN3CCCC(F)(F)C3)CC2)c2c(C3CCC3)nn(-c3ccccc3)c2n1 [compound 830]	588.2%
CC(C)c1nn(C2CCCN(CC(F)(F)F)C2)c2nc(C(=O)O)cc(-c3ccc(N4CCOCC4)cc3)c12 (stereo not drawn) [compound 161]	333.87%
CC(C)c1nn(-c2ccc(F)cc2)c2nc(C(=O)O)cc(N3CCC(CN4CCCCC4)CC3)c12 [compound 790]	419.1%
CC(C)c1nn(-c2ccc(F)cc2)c2nc(C(=O)O)cc(N3CCC(CCCN4CCCC4)CC3)c12 [compound 749]	387%
O=C(O)c1cc(N2CCC(CN3CCOCC3)CC2)c2c(C3CCC3)nn(C3CCCCC3)c2n1 [compound 806]	435.5%
O=C(O)c1cc(N2CCC(N3CCOCC3)CC2)c2c(C3CCC3)nn(-c3ccc(C(F)(F)F)cc3)c2n1 [compound 823]	375.2%
N#CC1CCN(c2ccc(-c3cc(C(=O)O)nc4c3c(OC3CCNC3)nn4-c3ccccc3)cn2)CC1 (stereo not drawn) [compound 550]	122.4%
CN(C)CCOc1cc(C(=O)O)nc2c1c(C1CCC1)nn2-c1ccccc1 [compound 637]	174.45%
O=C(O)c1cc(N2CCC(CN3CCCC3)CC2)c2c(C3CCC3)nn(-c3ccccc3)c2n1 [compound 557]	418.2%
CN(c1cc(C(=O)O)nc2c1c(C1CCC1)nn2-c1ccccc1)[C@H]1C[C@@H](O)C1 [compound 533]	315.85%
Cc1nn(-c2ccn(C)c(=O)c2)c2nc(C(=O)O)cc(-c3ccc(N4CCOCC4)cc3)c12 [compound 94]	119.4%
O=C(O)c1cc(N2CCC(CN3CCC(F)(F)C3)CC2)c2c(C3CCC3)nn(-c3ccccc3)c2n1 [compound 828]	518.35%
O=C(O)c1cc(N2CCC(N3CCN(C4CC4)CC3)CC2)c2c(C3CCC3)nn(-c3ccccc3)c2n1 [compound 738]	472.1%
COC1CCN(C2CCN(c3cc(C(=O)O)nc4c3c(C3CCC3)nn4-c3ccc(F)cc3)CC2)CC1 [compound 892]	428.72%

---

# system-name: ΔF508-CFTR (Homo sapiens, UniProt P13569, DEL508-508)
# Construct: host or cells: CFBE41o-, doxycycline-inducible
# experiment-description: CFTR cell surface levels using HRP-tagged ΔF508-CFTR expressing CFBE cells, intrinsic corrector capacity
# Type: cell-based
# condition-parameters: HRP-tagged ΔF508-CFTR expressing CFBE cells; intrinsic corrector capacity (no co-corrector); 33° C., 20 hours
# Lookup of reported % Activation keyed by entry

smiles-structure	% Activation [%]
COCC1(C)CN(c2cc(C(=O)O)nc3c2c(C2CCC2)nn3-c2ccccc2)C1	58.57
CC(C)OC1CN(c2cc(C(=O)O)nc3c2c(C2CCC2)nn3-c2ccccc2)C1	149.7
O=C(O)c1cc(N2CCC(O)CC2)c2c(C3CCC3)nn(-c3ccccc3)c2n1	152.7
COCCN1CCN(C2CCN(c3cc(C(=O)O)nc4c3c(C3CCC3)nn4-c3ccc(F)cc3)CC2)CC1	358.8
O=C(O)c1cc(OC2CC3(COC3)C2)c2c(C3CCC3)nn(-c3ccccc3)c2n1	95.96
CCN1CCCN(c2cc(C(=O)O)nc3c2c(C(C)C)nn3-c2ccc(F)cc2)CC1	31.52
O=C(O)c1cc(N2CCC(F)(F)C2)c2c(C3CCC3)nn(-c3ccccc3)c2n1	111.85
O=C(O)c1cc(N2CCC(N3CCOCC3)CC2)c2c(C3CCC3)nn(-c3cccc(OC(F)F)c3)c2n1	286.2
